- systemTested: T1, hIL-18 receptor (hIL-18Rα and hIL-18Rβ) (human, UniProt Q13478 19-541; O95256 20-599)
- T1 sequence (looked up) 1: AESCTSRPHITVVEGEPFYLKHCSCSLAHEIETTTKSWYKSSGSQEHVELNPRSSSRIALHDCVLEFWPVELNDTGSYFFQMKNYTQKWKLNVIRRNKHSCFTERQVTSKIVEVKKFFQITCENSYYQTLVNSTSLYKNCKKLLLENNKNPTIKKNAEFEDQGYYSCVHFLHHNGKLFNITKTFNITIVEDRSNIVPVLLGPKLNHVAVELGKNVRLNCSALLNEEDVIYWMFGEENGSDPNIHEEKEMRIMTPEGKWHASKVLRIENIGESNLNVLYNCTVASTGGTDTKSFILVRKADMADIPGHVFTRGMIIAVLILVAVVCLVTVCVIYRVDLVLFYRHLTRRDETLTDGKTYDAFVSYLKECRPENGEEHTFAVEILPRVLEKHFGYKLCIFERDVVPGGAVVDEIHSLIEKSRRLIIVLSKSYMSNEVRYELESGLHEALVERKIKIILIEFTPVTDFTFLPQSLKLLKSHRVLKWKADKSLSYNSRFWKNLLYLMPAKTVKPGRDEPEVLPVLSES
- T1 sequence (looked up) 2: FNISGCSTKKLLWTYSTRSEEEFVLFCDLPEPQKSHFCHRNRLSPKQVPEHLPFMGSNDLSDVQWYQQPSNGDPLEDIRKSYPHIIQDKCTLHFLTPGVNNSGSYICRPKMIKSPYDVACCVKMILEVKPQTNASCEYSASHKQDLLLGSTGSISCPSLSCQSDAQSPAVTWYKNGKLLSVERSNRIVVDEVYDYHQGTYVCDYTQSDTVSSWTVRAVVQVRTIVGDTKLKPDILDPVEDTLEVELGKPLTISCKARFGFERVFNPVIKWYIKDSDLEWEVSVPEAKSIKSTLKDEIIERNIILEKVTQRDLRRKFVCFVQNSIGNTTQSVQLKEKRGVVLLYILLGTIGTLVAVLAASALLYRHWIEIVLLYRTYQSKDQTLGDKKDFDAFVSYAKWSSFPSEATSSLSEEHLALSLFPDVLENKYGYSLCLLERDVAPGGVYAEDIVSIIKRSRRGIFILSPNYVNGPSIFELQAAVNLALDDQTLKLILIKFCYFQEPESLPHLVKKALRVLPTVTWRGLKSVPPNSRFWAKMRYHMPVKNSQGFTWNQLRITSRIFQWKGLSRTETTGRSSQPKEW
- protocolText: cell-based or functional assay
Documented EC50 (nM), hIL-18 reporter assay across a set of binders
Numeric answer only, unit nM assumed.

Examples from the recorded data:
binder	measurementLabel	measurement
IL-18 variant polypeptide M29 (ligand) YFPKLMSKLSVIRNLNDQVLFIDQGNRPLFEDMTDSDCRDNAPRTIFIISMYKFSDRRGMAVTISVKCEKISTLSCENKIISFKEMNPPDPIKDTKSDIIFFQRSVPGHDNKMQFESSSYEGYFLACEKERDLFKLILKKEDELGDRSIMFTVQNED	EC50 (nM), hIL-18 reporter assay	4.8
IL-18 variant polypeptide WM2 (ligand) YFPKLRSKLSVIRNLNDQVLFIDQGNRPLFEDMTDSDCRDNAPRTIFIISMYKDSQPRGMAVTISVKCEKISTLSCENKIISFKEMNPPDNIKDTESDIIFFQRSVPGHDNKMQFESSSYEGYFLACEKERDLFKLILKKEDELGDRSIMFTVQNED	EC50 (nM), hIL-18 reporter assay	10.7

Now, please, on to the next binder.
stdin: EC50 (nM), hIL-18 reporter assay lookup needed for IL-18 variant polypeptide M17 (ligand) YFPKLRSKLSVIRNLNDQVLFIDQGNRPLFEDMTDSDCRDNAPRTIFIISMYKLSTARGMAVTISVKCEKISTLSCENKIISFKEMNPPDGIKDTKSDIIFFQRSVPGHDNKMQFESSSYEGYFLACEKERDLFKLILKKEDELGDRSIMFTVQNED , thanks.
stdout: 0.41

The reported measurements were obtained from patent US20260092093A1.
